Hey, just so you know, these numbers are from a melting point compilation (Tetko et al.; mined from patent text by program, amines drawn as free bases though some values may be those of a salt).

PROPERTY: melting point

• CC(C)c1ccc2c(c1)c(Sc1ccccc1)c(CCC(C)(C)C(=O)O)n2Cc1ccc(Cl)cc1 = 164 to 166 °C
• NC(=NO)c1c(F)cccc1C(F)(F)F = 155 to 157 °C
• O=C(O)CNC(=O)C(S)Cc1ccccc1 (stereo not given) = 55 to 58 °C
• O=C(O)c1cc(Cl)c(Cl)cc1C(=O)Nc1cccc(-c2ccnc3c(C(=O)c4cccs4)cnn23)c1 = > 270 °C
• CN1C=NC(Cc2ccccc2)(Cc2ccccc2)C1=O = 125 to 126 °C

* * *

Listed compounds paired with reported melting point
PROPERTY: melting point

* C=CC(=O)Oc1c(Br)c(Br)c(Br)c(Br)c1OC(=O)C=C | 135 to 137 °C
* COc1cc2c(cc1Nc1ncc(Cl)c(Nc3ccccc3-n3cccn3)n1)CCN(CC(=O)N(C)C)CC2 | 66 to 67 °C
* O=C(c1ccc([N+](=O)[O-])cc1)c1ccc2[nH]c(=O)sc2c1 | 148 to 152 °C
* Cc1nc(Sc2cc(C(F)(F)F)ccn2)sc1CC(=O)O | 122 to 123 °C
* Cn1c(=O)[nH]c(=O)n(-c2cc([N+](=O)[O-])c(F)cc2Cl)c1=O | 135 to 139 °C
* Nc1ncnc2c1cnn2C1CCC(OCC(F)c2ccccc2)C(F)C1 (stereo unspecified) | 209 to 211 °C
* COc1cc(N2CCN(Cc3ccccc3)CC2)c2ncccc2c1C | 129 to 133 °C
* Nc1nc2ccccc2c2c1ncn2CCCCNC(=O)c1ccnc2ccccc12 | 214 to 215 °C
* Cc1oc(-c2ccccc2)nc1COc1ccc(Sc2nc(CC(=O)O)cs2)cc1 | 180 to 181 °C
* CCOC(=O)C(NC(=O)CI)C(=O)OCC | 95 to 97 °C
* CC1c2cccc3c2N(CC3)c2ccccc2N1C(=O)CCBr (stereo unspecified) | 149 to 151 °C
* CCCNc1nc(C#N)c(C#N)nc1SCc1ccccc1 | 153 to 156 °C
* Cc1c(C(=O)O)ccn2nc(-c3ccccc3)nc12 | > 250 °C
* C=CC(OC(C)OCC)C(NC(=O)OC(C)(C)C)c1ccccc1 (stereo unspecified) | 66 to 72 °C
* CC1(C)COC(=O)C1=O | 61 to 64 °C
* Cc1cc(C)nc(Oc2ccnc3cc(Cl)ccc23)n1 | 104 to 105 °C
* CC1(C)CC(NCCNCCNC2CC(C)(C)N(O)C(C)(C)C2)CC(C)(C)N1O | 118 to 124 °C
* CCOC(=O)C(C)(NC(=O)Cc1ccc2ccccc2c1)C(=O)OCC | 148 to 150 °C
* O=c1[nH]c2ncc(-c3ccc4[nH]ccc4c3)nc2n1CC1CCOCC1 | 305 to 308 °C
* COC1C=Cc2ccccc2C1(Nc1ccccc1C)C(N)=S (stereo unspecified) | 162 °C
* CC(C)N(CCn1c(-c2ccc(O)cc2)cc2c1CCCC2)C(C)C | 112 to 114 °C

* * *

Listed molecules paired with reported melting point
PROPERTY: melting point

• O=C(O)c1c2c(nc3ccccc13)-c1cc3sc4ccccc4c3cc1CC2 = 190 to 193 °C
• CCc1nc2c(N)nc3cc(-c4cnc5ccccc5c4)cnc3c2n1CC(C)(C)O = > 270 °C
• COCCOC12CC(CO)CN(C)C1Cc1c[nH]c3cccc2c13 (stereo unspecified) = 188 to 193 °C
• OC(CCCN1CCC(c2ncco2)CC1)c1ccc(F)cc1 (stereo unspecified) = 99 to 100 °C
• COCOc1ccc(C=O)c(O)c1 = 52 to 53 °C
• FC(F)(F)c1nc(-c2ccc(NCc3ccccc3)cn2)no1 = 81 to 84 °C
